Tested on: LOX IMVI
METHOD_NOTES: NCI tumour cell line growth inhibition, 48 h
Calls of active or inactive are those of the source. Cut-off read from the data, not from the text of the source: active = GI50 up to about 1.1 µM and inactive = higher.
Outcomes: active, inactive

1) COc1ccc(C2C(C(=O)O)=C(COC(C)=O)Oc3cc4c(cc32)OCO4)cc1 (stereo not drawn) : inactive
2) COc1ccc2c(c1OC)C1=C(C2=O)c2cc3c(cc2CCN1)OCO3 : inactive
3) CN(C)CCCNC(=O)c1cc2/c(=C\c3ccc(N(C)C)cc3)c3ccccc3n2[n+]1C : inactive
4) CC1=C(C#N)C(N)=C2C(C)=C(C#N)C(N)=C12 : inactive
5) CC(=O)N1C(Nc2cnc3ccccc3c2)CCN1c1ccccc1 (stereo not drawn) : inactive
6) CCCCOC(=O)C(NC(C(=O)OCCCC)c1cc(C(C)(C)C)c(O)c(C(C)(C)C)c1)c1cc(C(C)(C)C)c(O)c(C(C)(C)C)c1 (stereo not drawn) : inactive
7) O=C(O)Cc1c(-c2ccc([N+](=O)[O-])cc2)c(=O)oc2cc(O)ccc12 : inactive
8) O=C(NN=C1CCCCC1)Nc1ccccc1Cl : inactive
9) CCOC(=O)c1c(N2CCOCC2)[nH]c(=O)c(C(c2ccc(Cl)c([N+](=O)[O-])c2)c2c(O)c(C(=O)OCC)c(N3CCOCC3)[nH]c2=O)c1O : inactive
10) O=C(O)CSc1nnc(Cc2ccccc2)[nH]1 : inactive
11) CC(CCCCNC(=O)OC(C)(C)C)NC(=O)NC(C)CCCCNC(=O)OC(C)(C)C (stereo not drawn) : inactive
12) COc1ccc(C2SCC(=O)N2c2ccc(-n3c(-c4ccccc4)nc4ccccc4c3=O)cc2)cc1 (stereo not drawn) : inactive
13) Cc1cn(C2CC(n3cncn3)C(C(C)O)O2)c(=O)[nH]c1=O (stereo not drawn) : inactive
14) O=C1CSC(=O)/C1=C\NNc1nc2ccccc2o1 : inactive
15) O=C(O)c1ccc(Nc2ccnc3cc(Cl)ccc23)cc1O : inactive
16) O=C1/C(=C\c2cccc(Oc3ccccc3)c2)S(=O)(=O)C(c2ccccc2)N1Cc1ccccc1 (stereo not drawn) : inactive
17) COc1ccc2c(c1)C1=NCCN(C)c3ccc([N+](=O)[O-])c(c31)N2 : active
18) CC1(C)O[C@@H](CO)[C@H]([C@@]23OC[C@H]4OC(C)(C)OC4[C@@H]2OC(C)(C)O3)O1 (stereo partly drawn) : inactive
